These entries and their values trace back to PubChem BioAssay (EPA / NIEHS).

# Read-out: Interleukin 2 (IL2), IL2 (gene 3558)
# PROCEDURE_SUMMARY: BSK_BT_xIL2: BioMAP Diversity Plus: BT Assay for Interleukin 2 (IL2) Biomarker Activity (AID 2284245)
# RUN_CONDITIONS: primary human B cells with PBMC
Active and inactive are the calls of the source. How the source made its calls: active means hit-call score of the fitted dose curve at least 0.9, where 1 is the maximum; inactive means score below 0.9.
Return exactly one item of active, inactive

Worked examples follow.
In: For this compound, state the assay outcome: CO[Si](C)(CCC(F)(F)C(F)(F)C(F)(F)C(F)(F)C(F)(F)C(F)(F)F)OC
Out: inactive

In: Could you do the same for FC(F)(F)C(F)(F)C(F)(F)C(F)(F)C(F)(F)C(F)(F)C(F)(F)CCI , please?
Out: inactive

In: Could you do the same for O=C(O)CCC(F)(F)C(F)(F)C(F)(F)F , please?
Out: inactive

Consider the additional compound presented here.
In: For this compound, state the assay outcome: O=C1C=CC(=O)N1c1ccc(Cc2ccc(N3C(=O)C=CC3=O)cc2)cc1
Out: active

====

# Read-out: Urokinase-type plasminogen activator receptor (uPAR), PLAUR (gene 5329)
# PROCEDURE_SUMMARY: BSK_4H_uPAR: BioMAP Diversity Plus: 4H Assay for Urokinase-type plasminogen activator receptor (uPAR) Biomarker Activity (AID 2283030)
# RUN_CONDITIONS: primary human endothelial cells (HUVEC); actives raise or lower the signal
The source made the active and inactive calls. The calls were made as follows: active = hit-call score of the fitted dose curve at least 0.9, where 1 is the maximum; inactive = score below 0.9.
Return exactly one item of active, inactive

Worked examples follow.
In: For this compound, state the assay outcome: O=C1C=CC(=O)N1c1ccc(Cc2ccc(N3C(=O)C=CC3=O)cc2)cc1
Out: active

In: Could you do the same for CCOC(C=C(C)CCC=C(C)C)OCC , please?
Out: active

In: Could you do the same for CN(C(=O)C(F)(F)C(F)(F)C(F)(F)F)[Si](C)(C)C , please?
Out: inactive

In: Could you do the same for C[C@]12CC[C@H]3C(=CCc4cc(O)ccc43)[C@@H]1CCC2=O , please?
Out: inactive

Consider the additional compound presented here.
In: For this compound, state the assay outcome: C=CC(=O)OCC(F)(F)C(F)(F)C(F)(F)C(F)(F)C(F)(F)C(F)(F)C(F)(F)C(F)F
Out: inactive

====

# Read-out: Thrombomodulin, THBD (gene 7056)
# PROCEDURE_SUMMARY: BSK_CASM3C_Thrombomodulin: BioMAP Diversity Plus: CASM3C Assay for Thrombomodulin Biomarker Activity (AID 2283051);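 further: thrombomodulin protein level measured by ELISA 24 h after dosing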
# RUN_CONDITIONS: primary human coronary artery smooth muscle cells; actives raise or lower the signal
Active and inactive are the calls of the source. How the source made its calls: active means hit-call score of the fitted dose curve at least 0.9, where 1 is the maximum; inactive means score below 0.9.
Return exactly one item of label 1 = active, label 0 = inactive

Worked examples follow.
In: For this compound, state the assay outcome: FC(F)(F)C(F)(F)C(F)(F)CC1CO1 (stereo unspecified)
Out: label 0

In: Could you do the same for OCC(F)(F)C(F)(F)C(F)(F)CO , please?
Out: label 0

In: Could you do the same for CCN(CC)c1ccc(N=Nc2ccccc2)cc1 , please?
Out: label 1

In: Could you do the same for OCCCCC(F)(F)C(F)(F)C(F)(F)C(F)(F)F , please?
Out: label 0

In: Could you do the same for O=C(O)C(F)(F)C(F)(F)C(F)(F)OC(F)(F)F , please?
Out: label 0

Further cases:
In: For this compound, state the assay outcome: OC(O)C(F)(F)C(F)(F)F
Out: label 0

In: Could you do the same for O=C(O)C(F)(F)C(F)(F)C(F)(F)OC(F)(C(F)(F)F)C(F)(F)F , please?
Out: label 0

In: Could you do the same for Nc1cc([N+](=O)[O-])cc(Cl)c1O , please?
Out: label 0

====

# PROCEDURE_SUMMARY: BSK_SAg_Proliferation: Cell Proliferation Assessment in the BioMAP Diversity Plus: SAg Assay (AID 2283095);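 further: relative cell number as total protein by SRB absorbance in sub-confluent culture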
# RUN_CONDITIONS: primary human HUVEC with PBMC
Activity calls are given as the source filed them. Rule for the calls: active = hit-call score of the fitted dose curve at least 0.9, where 1 is the maximum; inactive = score below 0.9.
MEASURED_PARAMETER: AC50

Record excerpt, results attached:
In: What does the record list as AC50 for CCOC(C=C(C)CCC=C(C)C)OCC ?
Out: 34.4 µM (active)

In: Could you do the same for COC(F)(C(F)F)C(F)(F)F (stereo not drawn) , please?
Out: inactive

In: Could you do the same for OCCCCC(F)(F)C(F)(F)C(F)(F)C(F)(F)F , please?
Out: inactive

In: Could you do the same for O=C1C=CC(=O)N1c1ccc(Cc2ccc(N3C(=O)C=CC3=O)cc2)cc1 , please?
Out: 3.92 µM (active)

Lab note: each compound below needs its AC50 filled in.
1. OC(O)C(F)(F)C(F)(F)F
2. Cc1cc(C)c(O)c(C(C)(C)C)c1
3. O=C(O)C(F)(F)C(F)(F)C(F)(F)C(F)(F)C(F)(F)C(F)(F)C(F)F
4. C[C@]12CC[C@H]3C(=CCc4cc(O)ccc43)[C@@H]1CCC2=O
5. OCC(O)CC(F)(F)C(F)(F)C(F)(F)C(F)(F)C(F)(F)C(F)(F)C(F)(F)C(F)(F)F (stereo not drawn)
6. FC(F)(F)C(F)(F)C(F)(F)CC1CO1 (stereo not drawn)
7. CC1=CC2C3C=CC(C3)C2C1C (stereo not drawn)

Out:
["inactive", "31.2 µM (active)", "inactive", "inactive", "inactive", "inactive", "inactive"]

Lab note: each compound below needs its AC50 filled in.
1. CN(C(=O)C(F)(F)C(F)(F)C(F)(F)F)[Si](C)(C)C
2. C=CC(=O)OCCC(F)(F)C(F)(F)C(F)(F)C(F)(F)F

Out:
inactive
30 µM (active)

Lab note: each compound below needs its AC50 filled in.
1. O=C1c2c(O)ccc(Nc3ccc(CCO)cc3)c2C(=O)c2c([N+](=O)[O-])ccc(O)c21
2. O=C=Nc1cccc2c(N=C=O)cccc12
3. OCC(F)(F)C(F)(F)C(F)(F)CO
4. NC(=O)C(F)(F)C(F)(F)C(F)(F)C(F)(F)C(N)=O
5. O=C(O)C(F)(F)OC(F)(F)C(F)(F)OC(F)(F)C(F)(F)OC(F)(F)F
6. CCOC(=O)CC(=O)C(F)(F)C(F)(F)F

Out:
1: 20 µM (active); 2: inactive; 3: inactive; 4: inactive; 5: inactive; 6: inactive

====

# PROCEDURE_SUMMARY: ATG_BRE_CIS: Attagene CIS-FACTORIAL HepG2 Assay for human Bone Morphogenetic Protein (BMP) Response Element (BRE) (AID 2282933)
# RUN_CONDITIONS: HepG2 BMP response element reporter, Attagene transcription factor profiling; actives raise or lower the signal
Activity calls are given as the source filed them. How the source made its calls: active means hit-call score of the fitted dose curve at least 0.9, where 1 is the maximum; inactive means score below 0.9.
Return exactly one item of active, inactive

In: For this compound, state the assay outcome: COCCOCCC[Si](C)(O[Si](C)(C)C)O[Si](C)(C)C
Out: active

In: Could you do the same for CCC/C=C/CO , please?
Out: inactive

In: Could you do the same for CCCCCCCCCCCC(=O)Cl , please?
Out: inactive

In: Could you do the same for O=S(=O)(O)CCC(F)(F)C(F)(F)C(F)(F)C(F)(F)C(F)(F)C(F)(F)C(F)(F)C(F)(F)F , please?
Out: inactive

In: Could you do the same for CCCC(=O)OCC(COC(=O)CCC)OC(=O)CCC , please?
Out: active

In: Could you do the same for CCOC(C=C(C)CCC=C(C)C)OCC , please?
Out: inactive

Further cases:
In: For this compound, state the assay outcome: CN(C)C(C)(C)CO
Out: inactive

====

# PROCEDURE_SUMMARY: BSK_BT_PBMCCytotoxicity: PBMC Cytotoxicity Assessment in the BioMAP Diversity Plus: BT Assay (AID 2284225);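 further: PBMC viability measured by Alamar Blue dye reduction fluorescence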
# RUN_CONDITIONS: primary human B cells with PBMC
Activity calls are given as the source filed them. The calls were made as follows: active = hit-call score of the fitted dose curve at least 0.9, where 1 is the maximum; inactive = score below 0.9.
Return exactly one item of YES = active, NO = inactive

Worked examples follow.
In: For this compound, state the assay outcome: O=C(O)CCC(F)(F)C(F)(F)C(F)(F)F
Out: NO

In: Could you do the same for C[C@]12CC[C@H]3C(=CCc4cc(O)ccc43)[C@@H]1CCC2=O , please?
Out: NO

In: Could you do the same for Nc1cc([N+](=O)[O-])cc(Cl)c1O , please?
Out: NO

In: Could you do the same for NCC(F)(F)C(F)(F)C(F)(F)C(F)(F)C(F)(F)C(F)(F)F , please?
Out: NO

In: Could you do the same for O=C1C=CC(=O)N1c1ccc(Cc2ccc(N3C(=O)C=CC3=O)cc2)cc1 , please?
Out: YES

Consider the additional compound presented here.
In: For this compound, state the assay outcome: CCOC(C=C(C)CCC=C(C)C)OCC
Out: NO

====

# PROCEDURE_SUMMARY: BSK_3C_uPAR: BioMAP Diversity Plus: 3C Assay for Urokinase-type plasminogen activator receptor (uPAR) Biomarker Activity (AID 2282998)
# RUN_CONDITIONS: BioMAP 3C HUVEC, uPAR biomarker ELISA; actives raise or lower the signal
The source made the active and inactive calls. The calls were made as follows: active = hit-call score of the fitted dose curve at least 0.9, where 1 is the maximum; inactive = score below 0.9.
Return exactly one item of active, inactive

Worked examples follow.
In: For this compound, state the assay outcome: O=C1c2c(O)ccc(Nc3ccc(CCO)cc3)c2C(=O)c2c([N+](=O)[O-])ccc(O)c21
Out: active

In: Could you do the same for COC(F)(C(F)F)C(F)(F)F (configuration not stated) , please?
Out: inactive

In: Could you do the same for Cc1cnccn1 , please?
Out: inactive

In: Could you do the same for Cc1cc(O)c(C(C)(C)C)cc1C(C)(C)C , please?
Out: active

In: Could you do the same for CC(C)CCCC(C)CCO (configuration not stated) , please?
Out: active

Further cases:
In: For this compound, state the assay outcome: Brc1nc2ccccc2s1
Out: inactive

In: Could you do the same for OCC(O)CC(F)(F)C(F)(F)C(F)(F)C(F)(F)F (configuration not stated) , please?
Out: inactive
